These data points were gathered from ChEMBL document CHEMBL5154689.

- tested_on: Cholinesterase (Equus caballus)
- Sequence (P81908 whole entry): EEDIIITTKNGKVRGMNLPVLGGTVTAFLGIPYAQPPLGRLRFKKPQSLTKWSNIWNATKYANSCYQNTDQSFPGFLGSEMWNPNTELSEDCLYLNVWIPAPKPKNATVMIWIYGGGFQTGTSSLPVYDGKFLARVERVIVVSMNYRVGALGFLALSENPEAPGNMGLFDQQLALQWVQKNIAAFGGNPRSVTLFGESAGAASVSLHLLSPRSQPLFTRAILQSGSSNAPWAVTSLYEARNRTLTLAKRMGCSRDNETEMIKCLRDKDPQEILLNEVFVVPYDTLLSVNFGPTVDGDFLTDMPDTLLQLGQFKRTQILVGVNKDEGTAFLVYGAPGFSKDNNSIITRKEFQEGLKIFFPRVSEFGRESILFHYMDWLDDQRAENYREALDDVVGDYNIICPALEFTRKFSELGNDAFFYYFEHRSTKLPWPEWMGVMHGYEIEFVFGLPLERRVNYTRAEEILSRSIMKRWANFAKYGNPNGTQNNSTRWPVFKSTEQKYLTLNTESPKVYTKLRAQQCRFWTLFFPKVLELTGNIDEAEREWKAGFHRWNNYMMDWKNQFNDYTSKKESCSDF
- protocol_summary: Inhibition of equine serum BChE using butyrylthiocholine iodide as substrate preincubated with enzyme for 20 mins followed by substrate addition and measured after 20 mins by Ellman's method
pIC50: −log10 of the molar value.

- sample_smiles: "Cc1ccc(CN2CCC(NC(=O)c3ccc4c(c3)[nH]c3c(NC(=O)C5CC5)nccc34)CC2)cc1"
  pIC50: "< 4.30"
- sample_smiles: "O=C(NC1CCN(Cc2c(Cl)cccc2Cl)CC1)c1ccc2c(c1)[nH]c1c(NC(=O)C3CC3)nccc12"
  pIC50: "< 4.30"
- sample_smiles: "COC(=O)c1ccc2c(c1)[nH]c1c(NC(=O)C3CC3)nccc12"
  pIC50: "< 4.70"
- sample_smiles: "O=C(NCCC1CCN(Cc2ccccc2F)CC1)c1ccc2c(c1)[nH]c1c(NC(=O)C3CC3)nccc12"
  pIC50: 4.68
- sample_smiles: "O=C(NCCC1CCN(Cc2ccc(F)cc2)CC1)c1ccc2c(c1)[nH]c1c(NC(=O)C3CC3)nccc12"
  pIC50: 4.69
- sample_smiles: "O=C(NC1CCN(Cc2ccccc2F)CC1)c1ccc2c(c1)[nH]c1c(NC(=O)C3CC3)nccc12"
  pIC50: "< 4.30"
- sample_smiles: "O=C(NCCC1CCN(Cc2ccc(C(F)(F)F)cc2)CC1)c1ccc2c(c1)[nH]c1c(NC(=O)C3CC3)nccc12"
  pIC50: "< 4.30"
- sample_smiles: "O=C(NCC1CCN(Cc2ccccc2)CC1)c1ccc2c(c1)[nH]c1c(NC(=O)C3CC3)nccc12"
  pIC50: "< 4.30"
